Listed sequences paired with reported apparent KD of MS2 coat protein
test system: MS2 coat protein; assay: apparent KD of MS2 coat protein; higher = weaker reporter binding; conditions: Eterna round: R107; input ligand: arginine 13.2 mM
Just the number plus its unit, please.

{"sequenceCode": "AGUCUUAAUGGAAGGAGCGCAGUCAUAACAUGAGGAUCACCCAUGUCGAGGUGAGGGUCAUUGCAGGUAGGUCGCCAUACUAGGA [Same State - Arginine B (Freestyle 2)]", "result": "84.6 nM"}

Query block: Which apparent KD of MS2 coat protein reading was recorded for the sequence `GGAUAGGACACGGCCGCCACUUGCUAGGAUACUAGCAACAUUUCCUCUCAUGAGGAUCACCCAUGAAGGACCGGGUGUCCUAUCG` ?
Result block: 21.3 nM

Query block: Which apparent KD of MS2 coat protein reading was recorded for the sequence UCGUUAUGGUCGGCCGCCACUCGCGGAGAGCAUAGCUCAAACAUGAGGAUCACCCAUGUAUCAUGGAGGACCGGGACCAUAACGU [Rxmullin variation #StaticStem] ?
Result block: 30 nM
